target or system: p300 (UniProt Q09472 1-2414)
Sequence (Q09472 whole entry): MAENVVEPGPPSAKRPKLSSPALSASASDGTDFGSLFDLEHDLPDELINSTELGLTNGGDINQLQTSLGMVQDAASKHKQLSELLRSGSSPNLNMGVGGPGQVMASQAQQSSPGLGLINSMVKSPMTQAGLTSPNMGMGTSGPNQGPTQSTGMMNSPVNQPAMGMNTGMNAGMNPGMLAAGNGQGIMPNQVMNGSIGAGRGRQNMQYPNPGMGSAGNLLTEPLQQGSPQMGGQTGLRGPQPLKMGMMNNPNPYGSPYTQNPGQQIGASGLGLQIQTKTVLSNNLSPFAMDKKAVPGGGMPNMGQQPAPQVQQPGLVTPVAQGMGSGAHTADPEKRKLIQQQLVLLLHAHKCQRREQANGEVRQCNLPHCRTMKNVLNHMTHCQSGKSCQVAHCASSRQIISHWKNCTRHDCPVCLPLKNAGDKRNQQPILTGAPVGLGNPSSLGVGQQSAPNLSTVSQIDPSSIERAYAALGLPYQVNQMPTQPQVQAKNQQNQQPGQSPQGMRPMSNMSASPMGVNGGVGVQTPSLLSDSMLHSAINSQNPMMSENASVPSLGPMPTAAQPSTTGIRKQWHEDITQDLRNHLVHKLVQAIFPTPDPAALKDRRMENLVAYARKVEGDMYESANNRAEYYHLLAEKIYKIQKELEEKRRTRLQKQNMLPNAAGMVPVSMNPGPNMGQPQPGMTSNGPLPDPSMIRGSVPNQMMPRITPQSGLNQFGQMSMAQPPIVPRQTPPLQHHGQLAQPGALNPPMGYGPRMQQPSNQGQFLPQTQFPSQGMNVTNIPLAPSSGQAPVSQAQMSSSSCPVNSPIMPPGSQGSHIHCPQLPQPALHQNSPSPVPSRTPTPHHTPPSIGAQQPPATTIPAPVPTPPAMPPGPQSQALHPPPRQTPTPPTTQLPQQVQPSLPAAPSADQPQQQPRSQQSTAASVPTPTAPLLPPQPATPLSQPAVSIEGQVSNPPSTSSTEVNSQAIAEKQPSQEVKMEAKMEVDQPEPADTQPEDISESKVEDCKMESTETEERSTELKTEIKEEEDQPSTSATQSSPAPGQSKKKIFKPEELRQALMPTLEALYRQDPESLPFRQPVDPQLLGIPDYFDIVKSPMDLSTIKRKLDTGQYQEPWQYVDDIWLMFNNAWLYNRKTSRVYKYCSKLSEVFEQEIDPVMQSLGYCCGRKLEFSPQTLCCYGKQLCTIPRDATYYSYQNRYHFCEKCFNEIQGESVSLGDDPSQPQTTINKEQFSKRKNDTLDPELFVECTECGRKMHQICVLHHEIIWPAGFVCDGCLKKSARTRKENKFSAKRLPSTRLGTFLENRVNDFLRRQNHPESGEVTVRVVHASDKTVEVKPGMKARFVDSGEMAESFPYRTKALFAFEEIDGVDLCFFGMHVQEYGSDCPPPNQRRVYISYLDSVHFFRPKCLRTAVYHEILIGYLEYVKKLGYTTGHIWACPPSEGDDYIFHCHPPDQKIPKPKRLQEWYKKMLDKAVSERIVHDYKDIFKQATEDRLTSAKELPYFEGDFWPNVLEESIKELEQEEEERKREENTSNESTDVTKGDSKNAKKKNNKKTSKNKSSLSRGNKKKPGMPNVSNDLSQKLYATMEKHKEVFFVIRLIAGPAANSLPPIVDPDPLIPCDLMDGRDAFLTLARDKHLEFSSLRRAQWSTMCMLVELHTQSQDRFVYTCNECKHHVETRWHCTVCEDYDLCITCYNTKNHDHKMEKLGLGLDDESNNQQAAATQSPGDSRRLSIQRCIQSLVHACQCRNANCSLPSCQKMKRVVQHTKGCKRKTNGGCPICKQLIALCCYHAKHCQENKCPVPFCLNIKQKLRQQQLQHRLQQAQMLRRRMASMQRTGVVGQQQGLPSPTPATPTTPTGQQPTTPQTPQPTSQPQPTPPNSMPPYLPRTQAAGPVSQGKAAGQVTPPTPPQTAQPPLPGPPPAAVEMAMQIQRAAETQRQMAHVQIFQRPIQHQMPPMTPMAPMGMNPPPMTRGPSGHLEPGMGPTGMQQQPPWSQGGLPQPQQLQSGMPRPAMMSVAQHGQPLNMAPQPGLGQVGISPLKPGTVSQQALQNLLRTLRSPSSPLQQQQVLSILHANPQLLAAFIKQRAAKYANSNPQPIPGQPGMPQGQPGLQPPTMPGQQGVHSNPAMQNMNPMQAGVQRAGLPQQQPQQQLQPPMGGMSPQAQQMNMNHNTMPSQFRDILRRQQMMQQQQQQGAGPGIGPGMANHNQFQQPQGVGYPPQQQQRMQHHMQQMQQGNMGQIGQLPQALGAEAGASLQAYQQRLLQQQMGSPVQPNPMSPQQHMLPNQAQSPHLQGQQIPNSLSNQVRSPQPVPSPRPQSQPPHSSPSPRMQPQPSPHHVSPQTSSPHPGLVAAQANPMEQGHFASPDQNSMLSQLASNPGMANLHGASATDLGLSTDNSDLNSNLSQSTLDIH
assay protocol: ELISA
experimental readout: Kd
Don't forget the unit after the number, please.

Query :: In one line, give reported Kd of the entry SMDESGLPQLTSYDCEVNAPIQGSRNLLQGEELLRALDQVN (domain or fragment, UniProt Q16665 786-826, looked up) [HIF1α C-terminal transactivation domain, HIF1α_(786–826)] .
Result :: 14.5 nM
